Origin of measurements: patent US20070259916A1

Kindly state pIC50 for each of the entries shown.
biological target: human mGluR5d (Homo sapiens); assay: FLIPR assay, functional assessment of mGluR5 antagonism (intracellular calcium mobilization); conditions: cells expressing human mGluR5d; read-out: FLIPR hmGluR5d
Sequence (P41594 21-942 isoform P41594-3 limits assumed): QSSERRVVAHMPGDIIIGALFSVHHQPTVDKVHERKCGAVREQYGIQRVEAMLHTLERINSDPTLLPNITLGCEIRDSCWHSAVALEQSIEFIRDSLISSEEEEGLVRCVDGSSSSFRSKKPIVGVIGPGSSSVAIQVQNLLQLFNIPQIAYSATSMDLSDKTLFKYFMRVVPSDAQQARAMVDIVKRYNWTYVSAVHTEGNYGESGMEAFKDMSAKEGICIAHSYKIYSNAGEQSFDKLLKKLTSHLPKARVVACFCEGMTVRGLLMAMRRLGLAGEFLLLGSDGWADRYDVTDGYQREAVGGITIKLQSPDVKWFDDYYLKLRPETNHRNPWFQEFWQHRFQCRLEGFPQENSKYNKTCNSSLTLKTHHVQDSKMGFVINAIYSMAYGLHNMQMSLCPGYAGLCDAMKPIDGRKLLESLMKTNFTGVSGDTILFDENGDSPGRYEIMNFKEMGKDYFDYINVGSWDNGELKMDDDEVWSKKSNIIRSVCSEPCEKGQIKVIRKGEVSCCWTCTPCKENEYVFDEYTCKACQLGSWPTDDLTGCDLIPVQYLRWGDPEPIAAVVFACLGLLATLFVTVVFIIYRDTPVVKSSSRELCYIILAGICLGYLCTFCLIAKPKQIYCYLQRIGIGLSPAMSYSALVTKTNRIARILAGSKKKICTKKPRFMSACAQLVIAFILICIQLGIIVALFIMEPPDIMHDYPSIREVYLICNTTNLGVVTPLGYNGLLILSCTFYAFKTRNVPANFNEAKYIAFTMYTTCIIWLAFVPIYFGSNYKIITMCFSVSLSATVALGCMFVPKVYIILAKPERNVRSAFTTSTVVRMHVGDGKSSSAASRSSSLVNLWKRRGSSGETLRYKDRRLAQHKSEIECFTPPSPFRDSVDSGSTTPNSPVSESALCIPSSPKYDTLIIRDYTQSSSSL
Give bare numbers, as −log10 of the molar value.

compound	pIC50
Cn1c(-c2cccnc2)nnc1N1CCCC[C@H]1c1nnn(-c2cccc(Cl)c2)n1	6.71

Query compound follows.
Returns the measured pIC50 for the input compound. Input: COc1cc(-c2nnc(N3CCCCC3c3nnn(-c4cccc(C#N)c4)n3)n2C)ccn1 (centres unmarked) 6.96
